Quantity measured: melting point

Consider the worked cases shown below.
CCc1nnc(-c2cn3c(C)c(CC)c(OC)nc3n2)o1 ... 170 to 172 °C
CC(=O)Nc1cc2c3c(cccc3c1N1CCCC1)C(=O)N(O)C2=O ... 280 to 284 °C
Cc1ccc(CNc2nc(Nc3cccc(N4CCOCC4)c3)nc(OCC(F)(F)F)n2)o1 ... 130 to 134 °C
O=C(COCc1ccccc1Cl)Nc1ccccc1 ... 130 to 132 °C
Cc1cn(-c2ccc(NC(=O)c3ccc(C)c(C#Cc4cnc(NC5CC5)nc4)c3)cc2C(F)(F)F)cn1 ... 131 to 133 °C

For the molecule `Cc1c(C(=O)Cl)cccc1[N+](=O)[O-]` , what melting point is on record?
68 to 70 °C

For the molecule `C=CCn1nc(C)c(C(=O)c2ccc(Cl)cc2Cl)c1O` , what melting point is on record?
161 to 163 °C

For the molecule `CCC(CC)(CC(=O)O)C(=O)O` , what melting point is on record?
106 to 109 °C

For the molecule CC1C(=O)N(Oc2ccc(F)cc2F)Cc2ccc(NC3CCOCC3)nc21 (stereo unspecified) , what melting point is on record?
238 to 239 °C

For the molecule `O=C(O)[C@@H]1CCc2cc(F)ccc2O1` , what melting point is on record?
99.7 °C

For the molecule CCc1nnc(C(Cc2ccc(OCCc3nc(-c4ccccc4)oc3C)cc2)c2ccccc2)o1 (stereo unspecified) , what melting point is on record?
110 °C

For the molecule `C=Cc1ccc(S(=O)(=O)NS(=O)(=O)c2ccccc2)cc1` , what melting point is on record?
145 to 147 °C

For the molecule COc1ccc2c(c1)SC(C#N)C(=O)CO2 (stereo unspecified) , what melting point is on record?
132 to 133 °C

For the molecule `C=CCOCN1C(C)=C(C(=O)OCC)C(c2cccc([N+](=O)[O-])c2)C(C(=O)OCC)=C1C` , what melting point is on record?
111 to 112 °C

For the molecule `Cc1c(CCN(C)C(=O)OC(C)(C)C)c2cc(S(=O)(=O)c3cccc4ccccc34)ccc2n1C` , what melting point is on record?
176 to 178 °C

For the molecule COC(=O)c1ccc(CCn2ccn(C3CCc4ccccc4C3)c2=S)cc1 (stereo unspecified) , what melting point is on record?
159 to 161 °C

For the molecule `CN1N=C(c2ccccc2)C(C)(C)NC1=O` , what melting point is on record?
128 to 130 °C

For the molecule CCC1(O)CC(=O)OCc2c1cc1n(c2=O)Cc2cc3ccc(F)cc3nc2-1 (stereo unspecified) , what melting point is on record?
> 250 °C

For the molecule COC(=O)C1=C(C)NC(C)=C(S(=O)(=O)c2ccccc2)C1c1ccccc1[N+](=O)[O-] (stereo unspecified) , what melting point is on record?
203 °C

For the molecule `c1ccn2c(SCCN3CCNCC3)nnc2c1` , what melting point is on record?
104 °C

For the molecule `CC(=O)c1cc(S(=O)(=O)c2ccccc2)ccc1O` , what melting point is on record?
156 to 157 °C

---

Measured melting point values are reported for all entries that follow.

Consider the worked cases shown below.
COC(=O)c1ccc(Cl)cc1NC(=O)CSc1cccc(Br)c1 ... 89 to 90 °C
Clc1cccnc1-c1cc(OCCc2ccccn2)c2[nH]nc(Nc3nccs3)c2c1 ... 185 to 187 °C
CC(C)S(=O)(=O)c1cc(OCc2ccccc2F)c2[nH]nc(Nc3nccs3)c2c1 ... 268 to 269 °C
Cc1ccc(N=C=S)c(C)c1COC(=O)[C@H]1[C@@H](C=C(Cl)C(F)(F)F)C1(C)C (relative stereo) ... 60 °C
CCOC(=O)N1CCN(c2ccc(OC[C@H]3CCn4cc([N+](=O)[O-])nc4O3)cc2)CC1 ... 218 °C
CC(C)(COc1ccc(Cl)cc1)C(=O)COc1ccc(Cl)cc1 ... 76 to 77 °C
CN(c1ncnc2[nH]ccc12)C1CCCCC1 ... 177 to 180 °C
O=C(/C=C/C=C(c1ccc(F)cc1)c1ccc(F)cc1)Oc1ccc([N+](=O)[O-])cc1 ... 112 to 114 °C
COc1cc(N)c(Cl)cc1C(=O)NC1CCN(CC2CCN(C(=O)C3CCOCC3)CC2)CC1 ... 235 to 237 °C
OC1CSC(Oc2cc(F)ccc2-c2ccncc2)C(O)C1O (centres undefined) ... 209 °C

Turning to the following compound.
For the compound `COc1ccc(C(=O)Nc2cc(C)cc(C)c2)cc1NC(=S)Nc1cccc(C)c1` , what melting point is on record?
188 to 189 °C
